// folding stability dG unfold lookup, one value per entry
- Assay Name: folding stability dG unfold from chymotrypsin proteolysis; higher = more stable

{"Sequence Content": "SAGGSAKMKITVEKNEDGELYVLIEVDSVEELEEALKKLPGIEKVEVEVFVDEETKRVYILVRVKPSAGGSA [r15_344_TrROS_Hall]", "folding stability dG unfold": "3.62 kcal/mol"}
{"Sequence Content": "SAGGSAGGSAGKKKLRLTLPGAEVEYDAATNELTIRLKAPPPPPKTTTKVETKTVLLPGKSAGGSAGGSAGG [r11_149_TrROS_Hall]", "folding stability dG unfold": "1.2 kcal/mol"}
{"Sequence Content": "SAGGMTPSVLSNLSEEERKEAVRDFIIEFIKKAFPNVPEDFSVEEVPVLVYDLKTGKLFEVTVHLEGKSAGG [r13_555_TrMRF]", "folding stability dG unfold": "2.16 kcal/mol"}
{"Sequence Content": "SAGGSAGGSAKKPVTGTIILKYPGTPEDALAKAKEIAKELESRGYSVSAEFLPNGYIKITLPSAGGSAGGSA [r18_262_TrMRF]", "folding stability dG unfold": "1.78 kcal/mol"}
{"Sequence Content": "SAGGSAGGSAGMKVVVTLPDRTVTIPVNGTLDEAKEAVIKRAEELFGKPIPIEEITMSGESAGGSAGGSAGG [r11_1028_JUSTAS]", "folding stability dG unfold": "-0.0243 kcal/mol"}
{"Sequence Content": "SMTIKLPSKDFKLETLPDGTIKLTVKEPDGTVVTYTFPKGDKITKIEKITPDTIKLTFEKKPRLNPEILLSA [r9_501_JUSTAS]", "folding stability dG unfold": "3.65 kcal/mol"}
{"Sequence Content": "SAGGSAGGSAGAKVKVFKVRAEVKLTRTADGELVAEVTEVEIEEVEVEVRPPPPPPLPPASAGGSAGGSAGG [r11_381_TrROS_Hall]", "folding stability dG unfold": "3.11 kcal/mol"}

----------
- Assay Name: folding stability dG unfold from chymotrypsin proteolysis; higher = more stable
Outcome Measure: folding stability dG unfold (kJ/mol)

{"Sequence Content": "SKVRELLREIARPHGMPITDVKVEPPPDGWHKVTFQIQFPMKDPNGQPMRRMTFPATITVRNGKITEITISA [r9_519_TrROS]", "Outcome Measure": "folding stability dG unfold", "Numeric Result": 6.54}
{"Sequence Content": "SAGGSAGGSAGGSKPKMYILKIKIKVEVKYDKETNEIVEEEIEIEIEIIEVKPGEKLELSAGGSAGGSAGGS [r4_175_TrROS_Hall]", "Outcome Measure": "folding stability dG unfold", "Numeric Result": 13.7}
{"Sequence Content": "SAGGSAGGSAGGELKLLRIEVTGRAPYPTELLKTVEIVLPNEDVTEEQIRELLKELGIELSAGGSAGGSAGG [r7_903_TrMRF]", "Outcome Measure": "folding stability dG unfold", "Numeric Result": -2.11}
{"Sequence Content": "SAGGWFTWDIPVKADDPKEAVDYAKEQIKNIMREHHPGMPPGMKIDDIKVEPPPNGWYWVKITIEIDPPSAG [r5_320_TrROS]", "Outcome Measure": "folding stability dG unfold", "Numeric Result": 10.8}
{"Sequence Content": "SAGEPEKVTITLVDEETGVVITIEIDKETKKITITVESEEERERARELAERLAKELEEAGIKVEILPPSAGG [r19_354_TrROS_Hall]", "Outcome Measure": "folding stability dG unfold", "Numeric Result": 9.46}
{"Sequence Content": "SAGGNKATLTVSEDNYPVLLLELYAPDGELIATAPVLLDPEKGGLTAADLERLLKEIDVPPDVEVNIASAGG [r13_479_TrMRF]", "Outcome Measure": "folding stability dG unfold", "Numeric Result": 5.7}
{"Sequence Content": "SAGGSAGGSAKPLTVEEIIKKLNLPPNVEIVDVKVDYGKTENKPIIVLVLKTKDKPYLPVFASAGGSAGGSA [r18_354_TrMRF]", "Outcome Measure": "folding stability dG unfold", "Numeric Result": 8.01}

----------
- Assay Name: folding stability dG unfold (combined trypsin and chymotrypsin); higher = more stable
Entries get a class label from measured folding stability dG unfold. See ranges: bottom end: < 0.9 kcal/mol; midrange: ≥ 0.9 kcal/mol and < 3 kcal/mol; top end: ≥ 3 kcal/mol

{"Sequence Content": "SAGGSAGGSAGPSDDVKPYEVEAEFLIPGTGERVRVRAEVYTLDEEKGLALVRVEVEPVLSAGGSAGGSAGG [r11_1029_TrMRF]", "Class Label": "midrange"}
{"Sequence Content": "SAGGSAGGSAMVVEERRLPDDLLVRTEVEPVEDNELPGPALRVTVTTVDLKTGEETPEVIPESAGGSAGGSA [r18_66_JUSTAS]", "Class Label": "bottom end"}
{"Sequence Content": "SAGGSTLEEIKAAVIKAAEAGEKEAEIEAPLPDGGKLRILKGGVIEFIPEDGVPKRLKISVSEIKVSAGGSA [r2_97_TrMRF]", "Class Label": "bottom end"}
{"Sequence Content": "SAGGEVIELKIKFKTPEQREKLKEIAKKLNAEVVEEKDGEVIIRFKTPEQAERALKEAEKLGAEVELSAGGS [r16_88_TrROS_Hall]", "Class Label": "top end"}
{"Sequence Content": "SAGGSAGGSAGGKEITIMMPSPEAIKKLLPPGWKITNIEPIGRDPEDGYPYYMITFKPDSAGGSAGGSAGGS [r10_256_TrROS]", "Class Label": "midrange"}
{"Sequence Content": "SAGGSAGGSAGKMKIRVKIKRKDGKTLVIEGMSLEEIKELAEKEGFEIEKVEVVEVEPEESAGGSAGGSAGG [r11_283_TrROS_Hall]", "Class Label": "top end"}
{"Sequence Content": "SAGGSAGGMVIPFILPGSEFEEEEAIERLLELIETARELNPDTPIIANPLILEVPPPPTETELGSAGGSAGG [r6_728_TrMRF]", "Class Label": "midrange"}
{"Sequence Content": "SMKLIGVEEFENAKAVLFEKEDKYIKLVFIPEDIPEGEEIYYIKVFEGDEIIEEKAVKPEEIEEAIKEAGSA [r9_57_TrMRF]", "Class Label": "bottom end"}
{"Sequence Content": "SAGGKKKTIVLEVKVENLEEILKLAKEAAKAGDKVTVKVKLPDGEVYTVTVDVKTGKIVKVEKKKLPKSAGG [r13_873_TrROS_Hall]", "Class Label": "midrange"}
{"Sequence Content": "AFTITGIEVTYDPATNTVTVTATVTGPDGSTATVTLTLTLPAPPPPVTTVTRTETRTLPDGTTVTVTETFTS [r1_125_TrROS_Hall]", "Class Label": "top end"}
{"Sequence Content": "SPLTAEQIKKLLRELFPNAKIVSIEYDKENKTVTITFEDGLKIEVTVTEDGRVIIRITLPGKEITIEIEVSA [r9_304_TrROS_Hall]", "Class Label": "top end"}
{"Sequence Content": "SAGGSAGGAVPSYIKDIETIPETSALIVNAESEEIVKEFLEKLGLKIESKEVDEDKIILPAKIESAGGSAGG [r6_381_JUSTAS]", "Class Label": "bottom end"}
{"Sequence Content": "SAGGSATIEEIAQEIADNLPPGRKYRAKIYYDGEERTYEFRNPNGFKINITWKNGKIRSIDIEPRPSAGGSA [r15_175_TrROS]", "Class Label": "midrange"}

----------
- Assay Name: folding stability dG unfold from trypsin proteolysis; higher = more stable
Outcome Measure: folding stability dG unfold (kcal/mol)

{"Sequence Content": "SAGGSAGGAVPSYIKDIETIPETSALIVNAESEEIVKEFLEKLGLKIESKEVDEDKIILPAKIESAGGSAGG [r6_381_JUSTAS]", "Units Symbol": "kcal/mol", "Numeric Result": 0.774}
{"Sequence Content": "SASPRTITVPVTRFPDGTVRFTIETPDKTITLTFPPSATFEEALEKLSPDPDKKITLVEKDPTTVTVAESAG [r14_404_JUSTAS]", "Units Symbol": "kcal/mol", "Numeric Result": 0.781}
{"Sequence Content": "SAGGMVKLFTWPPGQPEEFAEKLRKLPDVVEVTIEEVDGALRIRIKLKGKDVEVTTDPAGRWSVTVVGSAGG [r13_907_JUSTAS]", "Units Symbol": "kcal/mol", "Numeric Result": 2.15}
{"Sequence Content": "SAMDFPPGSTATIKVEVKNPDNTKTETYEIEVPVDPETGKAITLEDLKEALEKLGVNPENVKIVDIKVGSAG [r14_93_TrMRF]", "Units Symbol": "kcal/mol", "Numeric Result": 3.18}
{"Sequence Content": "SAGGMTPVPVKLLSEESSSVSTLPNGETVTTTPSLAYSPLGFYVLTTTTTYPATPVTTTTSTVVPLSVSAGG [r19_320_JUSTAS]", "Units Symbol": "kcal/mol", "Numeric Result": 0.458}
{"Sequence Content": "SAGGMVRVTVVPTPGRAGEPVTLVIEHPDGTRTVPLPPDTSPEEARAAAERLAEEEGLDVAEVVFEASAGGS [r16_753_JUSTAS]", "Units Symbol": "kcal/mol", "Numeric Result": 0.243}
{"Sequence Content": "SAGGSAKKTLKIKVKTPKGGLKTIEIPDSVKKIDIIPGKDYVKIIIYNPKTKKKIELPPFKVIEISSAGGSA [r15_133_TrMRF]", "Units Symbol": "kcal/mol", "Numeric Result": 1.26}
{"Sequence Content": "SAGGSAGGSAGGSMKIYKITVKKEDSELEFYVSDDVPAEVAANILKALYPDVEVKIEEGSAGGSAGGSAGGS [r4_155_TrMRF]", "Units Symbol": "kcal/mol", "Numeric Result": 1.25}
{"Sequence Content": "SAGGSETVEIELGSEDGTVYKIEIERFPETGLLLIKVDGPDPKVIEKVVKELGVDVVEVLEDGYVLLASAGG [r13_937_TrMRF]", "Units Symbol": "kcal/mol", "Numeric Result": 1.45}
{"Sequence Content": "SAGGSAGGSGNATVMLMFPIEISITVMEWDNGKPKMKTQEIEIWVMIMIPVPPPPDPGDPEWNSAGGSAGGS [r12_713_TrROS]", "Units Symbol": "kcal/mol", "Numeric Result": 2.84}
{"Sequence Content": "SAGMDPSDPNSITTLTTEVEPLPDGSTRVTTYTKLPDGTIVKNVTTLDPAGNVLTTTTTPIPPEALNASAGG [r19_285_JUSTAS]", "Units Symbol": "kcal/mol", "Numeric Result": 3.56}
{"Sequence Content": "SAGGSAGGMTPEELAEQKAEELREKLLAEGRPVSLKITKVTYEVDPKTGTVKVTSDIEIVYGPGSAGGSAGG [r6_454_JUSTAS]", "Units Symbol": "kcal/mol", "Numeric Result": 1.04}
{"Sequence Content": "SAGGSAGGSAMLTIPVTTPEEARELAEELLRRGYLRVEPTEDGDVTVIHPDGVPTRILVPTESAGGSAGGSA [r18_126_TrMRF]", "Units Symbol": "kcal/mol", "Numeric Result": 0.471}
{"Sequence Content": "SAGGSAGGKKYRVVVYNPETGEWVEVEEVEFDPETGEVRVRLPGSGKEVTIPKDYPVYLNPELDSAGGSAGG [r6_884_TrMRF]", "Units Symbol": "kcal/mol", "Numeric Result": 2.21}
